TGI: recorded values
System: SF-268 CNS
Assay: NCI tumour cell line growth inhibition, 48 h

Consider the following illustrative entries.
compound	test target	measurement kind	result
CS/C=C\C(=O)O[C@H]1C[C@@H]2[C@@H](O)c3occ(C)c3C[C@]2(C)[C@@H](C)C1	SF-268 CNS	TGI	82.3 µM
Cc1nc2ccccc2c(=O)n1/N=C/c1ccc(N(C)C)cc1	SF-268 CNS	TGI	> 100 µM
O=C1Nc2ccccc2/C1=C\c1c(Cl)nc2n1CCS2	SF-268 CNS	TGI	94.8 µM

The reported TGI of the compound CN(C)CCOc1ccc(-c2cc(-c3ccc4c(c3)CC/C4=N\O)c(-c3ccncc3)o2)cc1 was 9.94 µM

The reported TGI of the compound Cc1cccc(C(=O)O)c1CC1NCCC2c3ccccc3NC12 (stereo not given) was > 100 µM

====

Test system: KM12 colon
Experiment: NCI tumour cell line growth inhibition, 48 h; in the data active = GI50 below about 0.43 µM; inactive = the rest
Respond with a class label; see 1 (active), 0 (inactive)

Some solved entries appear below for comparison.
compound	assigned class
Oc1c(CNCCNCc2cc(Cl)cc(Cc3ccccc3)c2O)cc(Cl)cc1Cc1ccccc1	1
CC(=O)c1cccc(NC(=O)c2ccc(NC3=C(Cl)C(=O)N(Cc4ccccc4)C3=O)cc2)c1	0
CN(C)c1ccc(/C=N/NC(=O)c2cccc3ccccc23)c(Cl)c1	0

Hi, do you know how C[C@]12CCc3sc(-c4cccc(F)c4)nc3C1=CC[C@@H]1[C@@H]2CC[C@]2(C)C(=O)CC[C@@H]12 came out in this test?
0

Hi, do you know how COC(=O)[C@@H](OC)[C@@H]1Cc2cc3cc(OC4CC(OC5CC(O)C(O)C(C)O5)C(O)C(C)O4)c(C)c(O)c3c(O)c2C(=O)[C@H]1OC1CC(OC2CC(OC3CC(C)(O)C(O)C(C)O3)C(O)C(C)O2)C(O)C(C)O1 (stereo partly drawn) came out in this test?
1

Hi, do you know how O=S(=O)(NCCO)c1cc[c]([Sb](=[O])([OH])[OH])cc1 came out in this test?
0

Hi, do you know how CCN(CC)CCCNc1[nH]ncc2c(C)c3nc4ccccc4c3cc12 came out in this test?
1

Hi, do you know how CC1(C)CC(=O)c2c(ccc(C(=O)C[C@@H](N)CO)c2N)O1 came out in this test?
1

Hi, do you know how Cc1cc(S(N)(=O)=O)c(S/C(=N\Nc2ccc([N+](=O)[O-])cc2)c2ccc3ccccc3c2)cc1Cl came out in this test?
0

Hi, do you know how Oc1ccccc1C=Nc1ccccc1N=Cc1ccccc1O.[Cu+2] came out in this test?
0

Hi, do you know how COc1ccc2[nH]c(O)c(/C=c3/ccc4c(c3)N=C(c3ccc(F)cc3)N=4)c2c1 came out in this test?
0

Hi, do you know how CN(C)CCOc1ccc(-c2cc(-c3ccc4c(c3)CC/C4=N\O)c(-c3ccncc3)o2)cc1 came out in this test?
0

====

Test system: NCI-H522 lung
Experiment: NCI tumour cell line growth inhibition, 48 h
measurement kind: TGI (µM)
Value expressed in µM; do not type the unit.

The reported TGI of the compound CC[C@H]1C=CCC[C@@]2(C[C@@H]3CC[C@@H]4[C@H](C(=O)OCCCCCCCCCCCCCCCC(=O)N(CCCNC(C)=O)C[C@H](CCNC(C)=O)OC(C)=O)[C@]5(CCC[C@@H](C)O5)NC(=[N+]34)N2)O1 was 0.287

The reported TGI of the compound Cn1c2ccccc2c2nnc(NNCc3ccccn3)nc21 was 18.1

The reported TGI of the compound CC(C)(O)CCc1ccc(O)c2c(=O)c3c(O)c4c(cc3oc12)O[C@H]1OC=C[C@@]41O was 18.3

The reported TGI of the compound Oc1c(CNCCNCc2cc(Cl)cc(Cc3ccccc3)c2O)cc(Cl)cc1Cc1ccccc1 was 25.6
